Quick reference: IC50 of the listed items.
Molecular target: DP (Homo sapiens, UniProt Q13258)
Sequence (Q13258 1-359): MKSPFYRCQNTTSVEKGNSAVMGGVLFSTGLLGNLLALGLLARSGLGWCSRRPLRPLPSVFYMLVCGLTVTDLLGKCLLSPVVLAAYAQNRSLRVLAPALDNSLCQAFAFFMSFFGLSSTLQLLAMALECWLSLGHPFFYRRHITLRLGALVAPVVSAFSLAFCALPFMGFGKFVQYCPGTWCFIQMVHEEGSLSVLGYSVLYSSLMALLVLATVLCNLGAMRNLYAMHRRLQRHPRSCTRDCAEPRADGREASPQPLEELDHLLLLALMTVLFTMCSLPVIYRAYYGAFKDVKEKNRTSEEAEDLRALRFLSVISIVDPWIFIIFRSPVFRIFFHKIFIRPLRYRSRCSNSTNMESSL
Test: DP activity (IC50)
Assay type: binding
Settings: plasma; read-out: DP IC50 (nM) Plasma
Assay Metric: IC50 (nM)

[[record]]
compound = "O=C(O)Cc1cc(Cl)c(Oc2ccc(C(=O)NC3CCC3)cc2NS(=O)(=O)c2ccc(C3CC3)cc2Cl)cc1F"
subject_of_test = "DP (Homo sapiens, UniProt Q13258)"
experimental_value = 18

[[record]]
compound = "CCC(C)(C)NC(=O)c1ccc(Oc2cc(F)c(CC(=O)O)cc2Cl)c(NS(=O)(=O)c2ccc(C(F)(F)F)cc2Cl)c1"
subject_of_test = "DP (Homo sapiens, UniProt Q13258)"
experimental_value = 51.6

[[record]]
compound = "CCCCNC(=O)c1ccc(Oc2ccc(CC(=O)O)cc2Cl)c(NS(=O)(=O)c2ccc(Cl)cc2)c1 [reference compound]"
subject_of_test = "DP (Homo sapiens, UniProt Q13258)"
experimental_value = 100

[[record]]
compound = "CCC(C)(C)NC(=O)c1ccc(Oc2cc(F)c(CC(=O)O)cc2Cl)c(NS(=O)(=O)c2ccc(C)cc2Cl)c1"
subject_of_test = "DP (Homo sapiens, UniProt Q13258)"
experimental_value = 21.8

[[record]]
compound = "CC1(NC(=O)c2ccc(Oc3cc(F)c(CC(=O)O)cc3Cl)c(NS(=O)(=O)c3ccc(C(F)(F)F)cc3Cl)c2)CCC1"
subject_of_test = "DP (Homo sapiens, UniProt Q13258)"
experimental_value = 41.9

[[record]]
compound = "CC(C)(C)NC(=O)c1ccc(Oc2cc(F)c(CC(=O)O)cc2Cl)c(NS(=O)(=O)c2ccc(Cl)cc2Cl)c1"
subject_of_test = "DP (Homo sapiens, UniProt Q13258)"
experimental_value = 79

[[record]]
compound = "CC(C)(C)NC(=O)c1ccc(Oc2cc(F)c(CC(=O)O)cc2Cl)c(NS(=O)(=O)c2ccc(OC(F)(F)F)cc2Cl)c1"
subject_of_test = "DP (Homo sapiens, UniProt Q13258)"
experimental_value = 37.8


====

Target: human CRTH2 (Homo sapiens, UniProt Q9Y5Y4)
Construct: Full-length human CRTH2 cDNA was generated by polymerase chain reaction (PCR); expressed in transfected cells; host or cells: 293 cells stably transfected with pHLT124 (pCDNA3.1(+)), named 293(124)
Assay: Human CRTH2 binding assay (3H-PGD2, 293(124) cells)
Details: whole blood; read-out: CRTH2 IC50 (nM) whole blood
Quick reference: IC50 of the listed items.
Assay Metric: IC50 (nM)

[[record]]
molecule = "CC(C)(C)NC(=O)c1ccc(Oc2cc(F)c(CC(=O)O)cc2Cl)c(NS(=O)(=O)c2ccc(OC(F)(F)F)cc2Cl)c1"
assay_metric = "IC50"
experimental_value = 2

[[record]]
molecule = "CC(C)(C)NC(=O)c1ccc(Oc2cc(F)c(CC(=O)O)cc2Cl)c(NS(=O)(=O)c2ccc(C(F)(F)F)cc2Cl)c1"
assay_metric = "IC50"
experimental_value = 1.1

[[record]]
molecule = "O=C(O)Cc1cc(Cl)c(Oc2ccc(C(=O)NC3CCC3)cc2NS(=O)(=O)c2ccc(C3CC3)cc2Cl)cc1F"
assay_metric = "IC50"
experimental_value = 0.5

[[record]]
molecule = "CC(C)(C)NC(=O)c1ccc(Oc2cc(F)c(CC(=O)O)cc2Cl)c(NS(=O)(=O)c2ccc(C3CC3)cc2Cl)c1 [drawing 69]"
assay_metric = "IC50"
experimental_value = 0.2


====

Quick reference: IC50 of the listed items.
Biological target: DP (Homo sapiens)
Experiment: DP activity (IC50)
Format: binding
Settings: plasma; read-out: DP IC50 (nM) Plasma
Assay Metric: IC50 (nM)

[[record]]
compound = "CC(C)(C)NC(=O)c1ccc(Oc2cc(F)c(CC(=O)O)cc2F)c(NS(=O)(=O)c2ccc(C3CC3)cc2Cl)c1"
subject_of_test = "DP (Homo sapiens)"
units_of_measure = "nM"
experimental_value = 39

[[record]]
compound = "Cc1ccc(S(=O)(=O)Nc2cc(C(=O)NC(C)(C)C)ccc2Oc2cc(F)c(CC(=O)O)cc2Cl)c(Cl)c1"
subject_of_test = "DP (Homo sapiens)"
units_of_measure = "nM"
experimental_value = 17.2

[[record]]
compound = "CCNC(=O)c1ccc(Oc2ccc(CC(=O)O)cc2)c(NS(=O)(=O)c2ccc(Cl)cc2Cl)c1 [reference compound]"
subject_of_test = "DP (Homo sapiens)"
units_of_measure = "nM"
experimental_value = 8420


====

Biological target: human CRTH2 (Homo sapiens)
Construct: Full-length human CRTH2 cDNA was generated by polymerase chain reaction (PCR); expressed in transfected cells; host or cells: 293 cells stably transfected with pHLT124 (pCDNA3.1(+)), named 293(124)
Sequence (Q9Y5Y4 1-395): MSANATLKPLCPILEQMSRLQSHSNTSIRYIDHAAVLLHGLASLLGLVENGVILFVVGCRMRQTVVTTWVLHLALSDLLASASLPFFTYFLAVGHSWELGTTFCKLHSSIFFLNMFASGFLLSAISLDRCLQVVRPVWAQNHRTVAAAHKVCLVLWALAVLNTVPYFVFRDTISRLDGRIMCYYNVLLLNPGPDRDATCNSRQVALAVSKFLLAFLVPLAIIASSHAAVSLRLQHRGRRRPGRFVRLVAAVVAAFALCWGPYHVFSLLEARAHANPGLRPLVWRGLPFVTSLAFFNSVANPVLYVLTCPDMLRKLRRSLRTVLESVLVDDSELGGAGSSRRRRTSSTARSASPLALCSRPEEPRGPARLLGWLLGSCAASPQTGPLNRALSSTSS
Assay: Human CRTH2 binding assay (3H-PGD2, 293(124) cells)
Settings: plasma; read-out: CRTH2 IC50 (nM) Plasma
Assay Metric: IC50 (nM)

[[record]]
compound = "CCNC(=O)c1ccc(Oc2ccc(CC(=O)O)cc2Cl)c(NS(=O)(=O)c2ccc(OC)cc2)c1 [reference compound]"
assay_metric = "IC50"
units_of_measure = "nM"
experimental_value = 16.7

[[record]]
compound = "CC(C)(C)NC(=O)c1ccc(Oc2cc(F)c(CC(=O)O)cc2Cl)c(NS(=O)(=O)c2ccc(OC(F)(F)F)cc2Cl)c1"
assay_metric = "IC50"
units_of_measure = "nM"
experimental_value = 19.4

[[record]]
compound = "CC(C)(C)NC(=O)c1ccc(Oc2cc(F)c(CC(=O)O)cc2F)c(NS(=O)(=O)c2ccc(C3CC3)cc2Cl)c1"
assay_metric = "IC50"
units_of_measure = "nM"
experimental_value = 10

[[record]]
compound = "CC1(NC(=O)c2ccc(Oc3cc(F)c(CC(=O)O)cc3Cl)c(NS(=O)(=O)c3ccc(OC(F)(F)F)cc3Cl)c2)CCC1"
assay_metric = "IC50"
units_of_measure = "nM"
experimental_value = 15.7

[[record]]
compound = "Cc1ccc(S(=O)(=O)Nc2cc(C(=O)NC3(C)CCC3)ccc2Oc2cc(F)c(CC(=O)O)cc2Cl)c(Cl)c1"
assay_metric = "IC50"
units_of_measure = "nM"
experimental_value = 12.1


====

Quick reference: IC50 of the listed items.
Biological target: human CRTH2 (Homo sapiens)
Construct: Full-length human CRTH2 cDNA was generated by polymerase chain reaction (PCR); expressed in transfected cells; host or cells: 293 cells stably transfected with pHLT124 (pCDNA3.1(+)), named 293(124)
Sequence (Q9Y5Y4 1-395): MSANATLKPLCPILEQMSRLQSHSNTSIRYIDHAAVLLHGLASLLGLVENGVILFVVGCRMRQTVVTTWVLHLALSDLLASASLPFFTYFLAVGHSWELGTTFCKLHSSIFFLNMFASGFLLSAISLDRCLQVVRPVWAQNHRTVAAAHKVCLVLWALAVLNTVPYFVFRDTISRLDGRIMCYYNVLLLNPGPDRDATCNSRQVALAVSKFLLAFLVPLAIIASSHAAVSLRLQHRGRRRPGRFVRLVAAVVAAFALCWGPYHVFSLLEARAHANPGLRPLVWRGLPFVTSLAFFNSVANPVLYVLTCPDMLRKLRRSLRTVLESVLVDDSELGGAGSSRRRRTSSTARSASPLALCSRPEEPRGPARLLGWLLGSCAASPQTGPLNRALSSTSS
Test: Human CRTH2 binding assay (3H-PGD2, 293(124) cells)
Conditions: buffer; read-out: CRTH2 IC50 (nM) Buffer
Assay Metric: IC50 (nM)

[[record]]
compound = "CC(C)(C)NC(=O)c1ccc(Oc2cc(F)c(CC(=O)O)cc2Cl)c(NS(=O)(=O)c2ccc(C(F)(F)F)cc2Cl)c1"
subject_of_test = "human CRTH2 (Homo sapiens)"
assay_metric = "IC50"
experimental_value = 3.5

[[record]]
compound = "CC(C)(C)NC(=O)c1ccc(Oc2cc(F)c(CC(=O)O)cc2Cl)c(NS(=O)(=O)c2ccc(Cl)cc2Cl)c1"
subject_of_test = "human CRTH2 (Homo sapiens)"
assay_metric = "IC50"
experimental_value = 5

[[record]]
compound = "Cc1ccc(S(=O)(=O)Nc2cc(C(=O)NC3(C)CCC3)ccc2Oc2cc(F)c(CC(=O)O)cc2Cl)c(Cl)c1"
subject_of_test = "human CRTH2 (Homo sapiens)"
assay_metric = "IC50"
experimental_value = 3.2

[[record]]
compound = "CCNC(=O)c1ccc(Oc2cc(Br)c(CC(=O)O)cc2OC)c(NS(=O)(=O)c2ccc(F)cc2F)c1 [reference compound]"
subject_of_test = "human CRTH2 (Homo sapiens)"
assay_metric = "IC50"
experimental_value = 1.6

[[record]]
compound = "CCNC(=O)c1ccc(Oc2ccc(CC(=O)O)cc2Cl)c(NS(=O)(=O)c2ccc(OC)cc2)c1 [reference compound]"
subject_of_test = "human CRTH2 (Homo sapiens)"
assay_metric = "IC50"
experimental_value = 2.7

[[record]]
compound = "CC1(NC(=O)c2ccc(Oc3cc(F)c(CC(=O)O)cc3Cl)c(NS(=O)(=O)c3ccc(OC(F)(F)F)cc3Cl)c2)CCC1"
subject_of_test = "human CRTH2 (Homo sapiens)"
assay_metric = "IC50"
experimental_value = 6.2

[[record]]
compound = "O=C(O)Cc1cc(Cl)c(Oc2ccc(C(=O)NC3CCC3)cc2NS(=O)(=O)c2ccc(C3CC3)cc2Cl)cc1F"
subject_of_test = "human CRTH2 (Homo sapiens)"
assay_metric = "IC50"
experimental_value = 3.3

